Recorded values, source the kinase profiling compilation of Christmann-Franck et al. (2016).

- Tested on: FLT3 (human), P36888 [K663Q]
- method.summary: KINOMEscan competition binding
- applied.conditions: compound 10.0 µM
endpoint.name: kinase still bound, per cent of control (%)

structure.smiles.string: CCN1CCN(Cc2ccc(Nc3ncc4c(n3)N(C)c3ccccc3C(=O)N4C)cc2C(F)(F)F)CC1
experimental.value: 62

structure.smiles.string: Cc1cc([C@@H](C)Nc2ccccc2C(=O)O)c2nc(N3CCOCC3)cc(=O)n2c1
experimental.value: 13

structure.smiles.string: O=C1Nc2ccc(I)cc2/C1=C/c1cc(Br)c(O)c(Br)c1
experimental.value: 11

structure.smiles.string: CCN1CCN(C(=O)Cc2ccc(Nc3ncc(F)c(Nc4ccc(C(=O)Nc5ccccc5Cl)cc4)n3)cc2)CC1
experimental.value: 0.4

structure.smiles.string: CCOc1cc(N2CCC(O)CC2)ccc1Nc1ncc2c(n1)N(C)c1ccccc1C(=O)N2C
experimental.value: 100

###

- tgt: CAMK1G (human)
- method.summary: KINOMEscan competition binding
- applied.conditions: compound 10.0 µM

compound: C=CC(=O)Nc1cccc(Nc2nc(N[C@H]3CC[C@H](N(C)C)CC3)nc3c2ncn3C(C)C)c1
output.unit: %
kinase still bound, per cent of control: 93
//
compound: Cn1c(=O)n(-c2ccc(C(C)(C)C#N)cc2)c2c3cc(-c4cnc5ccccc5c4)ccc3ncc21
output.unit: %
kinase still bound, per cent of control: 100
//
compound: C[C@@H](Oc1cc(-n2cnc3ccc(CN4CCN(C)CC4)cc32)sc1C(N)=O)c1ccccc1C(F)(F)F
output.unit: %
kinase still bound, per cent of control: 58
//
compound: C=CC(=O)Nc1cccc(Oc2nc(Nc3ccc(N4CCN(C)CC4)cc3OC)ncc2Cl)c1
output.unit: %
kinase still bound, per cent of control: 100
//
compound: COc1cc(C(=O)NC2CCN(C)CC2)ccc1Nc1ncc2c(n1)N(C1CCCC1)C(C)CC(=O)N2C (centres undefined)
output.unit: %
kinase still bound, per cent of control: 100
//
compound: N#Cc1c(NC(=O)c2cccc3ccccc23)sc2c1CCCC2
output.unit: %
kinase still bound, per cent of control: 90
//
compound: Nc1ccc(-c2ccc3ncc4ccc(=O)n(-c5cccc(C(F)(F)F)c5)c4c3c2)cn1
output.unit: %
kinase still bound, per cent of control: 88
//
compound: O=C(NOC[C@H](O)CO)c1ccc(F)c(F)c1Nc1ccc(I)cc1F
output.unit: %
kinase still bound, per cent of control: 100
//
compound: O=C(NC1CC1)c1cccc(-c2ccc3c(NC(=O)C4CC4)n[nH]c3c2)c1
output.unit: %
kinase still bound, per cent of control: 75
//
compound: CCOc1cc2ncc(C#N)c(Nc3ccc(OCc4ccccn4)c(Cl)c3)c2cc1NC(=O)/C=C/CN(C)C
output.unit: %
kinase still bound, per cent of control: 100
//
compound: C=CC(=O)Nc1cc(NC(=O)c2ccc(C)c(NC(=O)c3ccno3)c2)cc(C(F)(F)F)c1
output.unit: %
kinase still bound, per cent of control: 91
//
compound: COc1cc(N2CCN(C)CC2)ccc1Nc1nc(N)c(C(=O)c2c(Cl)cccc2Cl)s1
output.unit: %
kinase still bound, per cent of control: 42
//
compound: CCCS(=O)(=O)Nc1ccc(F)c(C(=O)c2c[nH]c3ncc(-c4ccc(Cl)cc4)cc23)c1F
output.unit: %
kinase still bound, per cent of control: 92
//
compound: O=C(O)c1ccc(Nc2ncc3c(n2)-c2ccc(Cl)cc2C(c2c(F)cccc2F)=NC3)cc1
output.unit: %
kinase still bound, per cent of control: 79
//
compound: CCN1CCN(Cc2ccc(Nc3ncc4c(n3)N(C)c3ccccc3C(=O)N4C)cc2C(F)(F)F)CC1
output.unit: %
kinase still bound, per cent of control: 61
//
compound: O=C1Nc2ccc(I)cc2/C1=C/c1cc(Br)c(O)c(Br)c1
output.unit: %
kinase still bound, per cent of control: 44
//
compound: OCCCNc1cc(-c2ccnc(Nc3cccc(Cl)c3)n2)ccn1
output.unit: %
kinase still bound, per cent of control: 100
//
compound: Cc1cc([C@@H](C)Nc2ccccc2C(=O)O)c2nc(N3CCOCC3)cc(=O)n2c1
output.unit: %
kinase still bound, per cent of control: 91
//
compound: COc1cc(C(=O)NC2CCN(C)CC2)ccc1Nc1ncc2c(n1)N(C1CCCC1)CCC(=O)N2C(C)C
output.unit: %
kinase still bound, per cent of control: 100
